# procedure-summary: photoluminescence quantum yield (fraction); solvent given as SMILES
# recorded-conditions: in C1CCCCC1
# binarize photoluminescence quantum yield: threshold 0.3 inclusive, high side True, low side False

Query: Confirm if photoluminescence quantum yield reported for the molecule COC(=O)C(Cc1ccc2oc(-c3ccc(N(C)C)cc3)nc2c1)NC(=O)OC(C)(C)C (centres undefined) is 0.3 or above.
Reply: True

Query: Subsequent entry: CCOC(=O)C(C(=O)OCC)C1=[N+]2C(=C(c3ccc(C)cc3)c3ccc(C(C(=O)OCC)C(=O)OCC)n3[B-]2(F)F)C=C1
Reply: True

Query: Subsequent entry: Cc1ccc(NC(=O)c2ccc(N(C)C)cc2)cc1
Reply: False

Query: Subsequent entry: CN(C)c1ccc(-c2nc(C#N)c(C#N)n2C)cc1
Reply: True

Query: Subsequent entry: CCn1c2ccccc2c2ccc(-c3ccc(OC)cc3)cc21
Reply: False

Query: Subsequent entry: C[Si](C)(C)C#CC#Cc1ccc2c3cccc4cccc(c5cccc1c52)c43
Reply: True

Query: Subsequent entry: CC1(C)CCc2c(c3ccccc3c3nc4c(nc23)c2c(c3ccccc34)OC(C)(C)CC2)O1
Reply: True

Query: Subsequent entry: CC(C)(C)c1ccc2c3c(c4ccc(C(C)(C)C)cc4c2c1)=[N+]1C(=C(c2ccccc2)c2c(Br)c4c5ccc(C(C)(C)C)cc5c5cc(C(C)(C)C)ccc5c4n2[B-]1(F)F)C=3Br
Reply: False

Query: Subsequent entry: CCC1=C(C)C2=Cc3c(I)c(I)c(I)n3[B-](F)(F)[N+]2=C1C
Reply: False

Source listed as the Deep4Chem optical property database.
